RUN DESCRIPTION: Cynomolgus monkey tolerability, kidney and liver function markers (Example 34)
TEST CONTEXT: cynomolgus monkeys, 35 mg/kg subcutaneously, day 44
PROPERTY MEASURED: ALT (IU/L)
Reply with just the number (in IU/L).

Worked examples follow.
{"SUBSTANCE": "1198831 (CACTTTTACATTAGGA; chemically modified gapmer, further chemistry not given here) [compound 1198831]", "ALT, IU/L": 48}
{"SUBSTANCE": "958499 (ATTAGAGTATGTGGCA; 3-10-3 cEt gapmer, further chemistry not given here) [compound 958499]", "ALT, IU/L": 67}
{"SUBSTANCE": "1197270 (TTAAAGTGTATGTCAG; cEt gapmer with 2'-OMe nucleoside, phosphorothioate, further chemistry not given here) [compound 1197270]", "ALT, IU/L": 84}
{"SUBSTANCE": "1198872 (TGTATGTCAGAAGAGT; chemically modified gapmer, further chemistry not given here) [compound 1198872]", "ALT, IU/L": 48}

Attention now turns to another entry.
Prompt: Fill in the blank: the reported ALT of 1198440 (AAGTGTATGTCAGAAG; cEt, 2'-MOE, 5-methylcytosine, phosphorothioate modifications, further chemistry not given here) [compound 1198440] is ____.
Completion: 45
